B1: FERM and PDZ domain-containing protein 4, residues 75 to 154; numbered along this chain, Q14CM0 (parent)
chain: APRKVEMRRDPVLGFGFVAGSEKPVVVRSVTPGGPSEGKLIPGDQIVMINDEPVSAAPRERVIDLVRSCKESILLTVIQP

variants of: B1; assay: abundance fitness (aPCA) (normalised: wild type 0, dead -1); higher = more abundant; growth selection in yeast, the domain comes from the species named; settings: Homo sapiens
measurementLabel: abundance fitness
Just the number, please.

variantName: V25D
abundance fitness: -0.535
//
variantName: I63S
abundance fitness: 0.021

Suppose we examine the variant I49T ; what abundance fitness value has been reported?
-0.708

Sample I41T — what was its abundance fitness?
0.013

What abundance fitness value was documented for this variant, E6I ?
-0.006

I have this variant here, F15W , and I need its recorded abundance fitness.
-0.057

Which value of abundance fitness has been reported for A1I in the records?
0.122

If you can, please state the reported abundance fitness value of V25N .
-0.23

Can you look up the measured abundance fitness of G14T for me?
-0.718

For E22S , what is its reported abundance fitness?
-0.126

Bench note: what abundance fitness did I73S show?
-0.462

# get_value(readout='abundance fitness', item= G20F )
-0.155

Quick one: abundance fitness for V30D ?
-0.804

Looking for the measured abundance fitness of P11I , can you help?
-0.162

What does the record list as abundance fitness for R59D ?
-0.385

Origin of values: the Human Domainome abundance scans (Beltran et al. 2025)
